Consider the following compounds; for each one, report its IC50.
- TEST SYSTEM: EHMT2 (Euchromatic histone-lysine N-methyltransferase 2) (Homo sapiens (Human), UniProt Q96KQ7)
- Sequence (Q96KQ7 whole entry): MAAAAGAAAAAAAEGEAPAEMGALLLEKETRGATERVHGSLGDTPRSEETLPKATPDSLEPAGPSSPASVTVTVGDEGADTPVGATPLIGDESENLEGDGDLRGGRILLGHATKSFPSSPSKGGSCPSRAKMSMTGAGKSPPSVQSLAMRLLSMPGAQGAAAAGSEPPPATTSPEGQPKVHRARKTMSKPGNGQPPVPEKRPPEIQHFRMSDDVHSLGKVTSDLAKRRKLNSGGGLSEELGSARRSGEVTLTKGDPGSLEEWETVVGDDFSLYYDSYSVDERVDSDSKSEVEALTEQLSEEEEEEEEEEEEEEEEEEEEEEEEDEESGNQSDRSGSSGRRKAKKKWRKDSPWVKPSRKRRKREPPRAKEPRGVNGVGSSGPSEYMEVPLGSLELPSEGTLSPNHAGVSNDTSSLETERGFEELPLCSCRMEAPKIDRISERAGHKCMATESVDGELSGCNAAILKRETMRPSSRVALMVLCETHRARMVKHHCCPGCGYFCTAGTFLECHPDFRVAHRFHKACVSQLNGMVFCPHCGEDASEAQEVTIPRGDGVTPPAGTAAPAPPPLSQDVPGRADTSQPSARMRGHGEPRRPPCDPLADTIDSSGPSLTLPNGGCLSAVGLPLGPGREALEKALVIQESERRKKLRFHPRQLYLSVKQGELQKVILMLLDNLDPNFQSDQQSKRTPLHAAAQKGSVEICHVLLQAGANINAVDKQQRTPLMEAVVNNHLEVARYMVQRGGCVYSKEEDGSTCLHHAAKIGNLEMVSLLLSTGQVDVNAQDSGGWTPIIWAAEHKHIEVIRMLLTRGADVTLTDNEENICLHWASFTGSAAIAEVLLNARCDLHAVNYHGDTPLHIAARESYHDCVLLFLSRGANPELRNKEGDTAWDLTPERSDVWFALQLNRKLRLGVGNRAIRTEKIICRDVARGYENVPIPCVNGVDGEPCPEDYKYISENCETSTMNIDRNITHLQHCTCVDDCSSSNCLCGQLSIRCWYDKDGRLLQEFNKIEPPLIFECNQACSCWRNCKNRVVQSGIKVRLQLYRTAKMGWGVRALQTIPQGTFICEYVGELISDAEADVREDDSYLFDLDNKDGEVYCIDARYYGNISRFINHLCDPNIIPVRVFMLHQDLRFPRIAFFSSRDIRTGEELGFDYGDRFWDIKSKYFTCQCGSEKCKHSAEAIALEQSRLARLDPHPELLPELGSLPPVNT

Ask: Any idea what IC50 was measured for "COc1cc2c(NC3CCN(C4CC4)CC3)nc(N3CC[C@@H](F)C3)nc2cc1C#CCCN(C)C" ?
Result: 1000 to 10000 nM

Ask: IC50 for "CCN1CCC(Nc2nc(N3CC[C@H](F)C3)nc3cc(C#CCCN4CCCC4)c(OC)cc23)CC1" ?
Result: < 100 nM

Ask: Report IC50 for "COc1cc2c(NC3CCN(CCO)CC3)nc(N3CC[C@@H](F)C3)nc2cc1C#CCCN1CCCC1" please.
Result: < 100 nM

Ask: # lookup: IC50 of "COc1cc2c(NC3CCN(C(C)C)CC3)nc(N(C)C)nc2cc1C#CCCN(C)C"
Result: < 100 nM

Ask: # IC50 lookup, item "COc1cc2c(NC3CCN(C(C)C)CC3)nc(N3CCC4(CCCC4)C3)nc2cc1C#CCCN1CCCC1"
Result: 100 to 1000 nM

Ask: Looking for the measured IC50 of "COc1cc2c(NC3CCN(CCO)CC3)nc(N3CCCCC3)nc2cc1C#CCCN1CCCC1" , can you help?
Result: < 100 nM

Ask: IC50 lookup needed for "COc1cc2c(NC3CCN(C(C)C)CC3)nc(N3CCN(C)CC3)nc2cc1C#CCCN(C)C" , thanks.
Result: 100 to 1000 nM

Ask: Recorded IC50 of "COc1cc2c(NCc3cccnc3)nc(N3CCCC3)nc2cc1C#CCCN1CCCC1" , please.
Result: 100 to 1000 nM

Ask: Fill in the blank: the reported IC50 of "CCN1CCC(Nc2nc(N(C)C)nc3cc(C#CCCN4CCCC4)c(OC)cc23)CC1" is ____.
Result: < 100 nM

Ask: // returns reported IC50 for input "COc1cc2c(NC3CCCCC3)nc(N3CCCCC3)nc2cc1C#CCCN(C)C"
Result: 10000 to 100000 nM

Ask: Look at this compound and give its reported IC50. "COc1cc2c(NCc3ccncc3)nc(N3CCCCC3)nc2cc1C#CCCN(C)C"
Result: 10000 to 100000 nM

Ask: Which IC50 reading was recorded for the compound "COc1cc2c(NC3CCN(C4CC4)CC3)nc(N(C)C)nc2cc1C#CCCN1CCCC1" ?
Result: < 100 nM

Ask: Fill blank: measured IC50 of the compound "COc1cc2c(NC3CCN(C(C)C)CC3)nc(N3CCCCC3)nc2cc1C#CCCN(C)C" is ____.
Result: < 100 nM

Ask: Item under review: "COc1cc2c(NC3CCN(C(C)C)CC3)nc(N3CCCCC3)nc2cc1C#CCCN1CC(F)C1" . Reported IC50?
Result: 10000 to 100000 nM

Ask: Find the recorded IC50 belonging to "COc1cc2c(NCCCN(C)C)nc(N3CCCCC3)nc2cc1C#CCCN(C)C" and report it.
Result: 100 to 1000 nM

Ask: Fill blank: measured IC50 of the compound "COc1cc2c(NC3CCN(C(C)C)CC3)nc(N3CCCC3)nc2cc1C#CCCN1CCCC1" is ____.
Result: < 100 nM

Ask: Recorded IC50 of "COc1cc2c(NC3CCN(C(C)C)CC3)nc(N3CCCN(C)CC3)nc2cc1C#CCCN(C)C" , please.
Result: < 100 nM

Ask: For the compound shown here, "COc1cc2c(NC3CCN(C(C)C)CC3)nc(N3CCCCC3)nc2cc1C#CCCC(=O)N(C)C" , give the reported IC50.
Result: 10000 to 100000 nM

Ask: Need IC50, item "COc1cc2c(NC3CCN(C(C)C)CC3)nc(N3CCCCC3)nc2cc1C#CCCN1CCCC1"
Result: < 100 nM

Ask: Entry "COc1cc2c(NC3CCN(C4CC4)CC3)nc(N3CCCCC3)nc2cc1C#CCCN1CCCC1" : reported IC50 = ?
Result: < 100 nM

Ask: // lookup IC50 for "COc1cc2c(NC3CCN(CCO)CC3)nc(N3CCCC3)nc2cc1C#CCCN1CCCC1"
Result: < 100 nM

Ask: Returns the measured IC50 for the input compound. Input: "COc1cc2c(NC3CCN(C(C)C)CC3)nc(N3CCCC3)nc2cc1C#CCCN1CCCCC1"
Result: < 100 nM

Ask: Fill in the blank: the reported IC50 of "COc1cc2c(NCCN(C)C)nc(N3CCCCC3)nc2cc1C#CCCN(C)C" is ____.
Result: 100 to 1000 nM

Ask: Sample "COc1cc2c(NC3CCN(C(C)C)CC3)nc(N3CCN(C)CC3)nc2cc1C#CCCN1CCCCC1" — what was its IC50?
Result: 1000 to 10000 nM

Ask: // lookup IC50 for "COc1cc2c(NCc3cccnc3)nc(N3CCCCC3)nc2cc1C#CCCN(C)C"
Result: 100 to 1000 nM

Ask: Any idea what its IC50 is? The compound is "COc1cc2c(NC3CCN(C(C)C)CC3)nc(N3C[C@@H]4C[C@@H]4[C@@H]3CO)nc2cc1C#CCCN(C)C"
Result: 100 to 1000 nM

Ask: Entry under review: "COc1cc2c(NC3CCN(C)CC3)nc(N3CCCCC3)nc2cc1C#CCCN(C)C" . Reported IC50?
Result: 100 to 1000 nM

Ask: Any idea what its IC50 is? The compound is "COc1cc2c(NC3CCN(C(C)C)CC3)nc(N3CCCC3)nc2cc1/C=C/CCN1CCCC1"
Result: < 100 nM

Ask: I am curious: what IC50 value has been reported for "COc1cc2c(NC3CCN(C(C)C)CC3)nc(N(C)C)nc2cc1C#CCCN1CCCCC1" ?
Result: < 100 nM

Ask: IC50 for "COc1cc2c(NC3CCN(C4CC4)CC3)nc(N3CCCN(C)CC3)nc2cc1C#CCCN1CCCC1" ?
Result: < 100 nM

Ask: IC50 for "COc1cc2c(NC3CCN(CCO)CC3)nc(N(C)C)nc2cc1C#CCCN1CCCC1" ?
Result: < 100 nM

Ask: # lookup: IC50 of "COc1cc2c(NC3CCN(C(C)C)CC3)nc(N3CCC4(CCCC4)C3)nc2cc1C#CCCN1CCCCC1"
Result: 1000 to 10000 nM

Ask: Find the recorded IC50 belonging to "COc1cc2c(NCCc3ccncc3)nc(N3CCCCC3)nc2cc1C#CCCN(C)C" and report it.
Result: 10000 to 100000 nM
